biological target: Adenomatous polyposis coli protein (Homo sapiens)
Sequence (P25054 whole entry, the tested form may be a part): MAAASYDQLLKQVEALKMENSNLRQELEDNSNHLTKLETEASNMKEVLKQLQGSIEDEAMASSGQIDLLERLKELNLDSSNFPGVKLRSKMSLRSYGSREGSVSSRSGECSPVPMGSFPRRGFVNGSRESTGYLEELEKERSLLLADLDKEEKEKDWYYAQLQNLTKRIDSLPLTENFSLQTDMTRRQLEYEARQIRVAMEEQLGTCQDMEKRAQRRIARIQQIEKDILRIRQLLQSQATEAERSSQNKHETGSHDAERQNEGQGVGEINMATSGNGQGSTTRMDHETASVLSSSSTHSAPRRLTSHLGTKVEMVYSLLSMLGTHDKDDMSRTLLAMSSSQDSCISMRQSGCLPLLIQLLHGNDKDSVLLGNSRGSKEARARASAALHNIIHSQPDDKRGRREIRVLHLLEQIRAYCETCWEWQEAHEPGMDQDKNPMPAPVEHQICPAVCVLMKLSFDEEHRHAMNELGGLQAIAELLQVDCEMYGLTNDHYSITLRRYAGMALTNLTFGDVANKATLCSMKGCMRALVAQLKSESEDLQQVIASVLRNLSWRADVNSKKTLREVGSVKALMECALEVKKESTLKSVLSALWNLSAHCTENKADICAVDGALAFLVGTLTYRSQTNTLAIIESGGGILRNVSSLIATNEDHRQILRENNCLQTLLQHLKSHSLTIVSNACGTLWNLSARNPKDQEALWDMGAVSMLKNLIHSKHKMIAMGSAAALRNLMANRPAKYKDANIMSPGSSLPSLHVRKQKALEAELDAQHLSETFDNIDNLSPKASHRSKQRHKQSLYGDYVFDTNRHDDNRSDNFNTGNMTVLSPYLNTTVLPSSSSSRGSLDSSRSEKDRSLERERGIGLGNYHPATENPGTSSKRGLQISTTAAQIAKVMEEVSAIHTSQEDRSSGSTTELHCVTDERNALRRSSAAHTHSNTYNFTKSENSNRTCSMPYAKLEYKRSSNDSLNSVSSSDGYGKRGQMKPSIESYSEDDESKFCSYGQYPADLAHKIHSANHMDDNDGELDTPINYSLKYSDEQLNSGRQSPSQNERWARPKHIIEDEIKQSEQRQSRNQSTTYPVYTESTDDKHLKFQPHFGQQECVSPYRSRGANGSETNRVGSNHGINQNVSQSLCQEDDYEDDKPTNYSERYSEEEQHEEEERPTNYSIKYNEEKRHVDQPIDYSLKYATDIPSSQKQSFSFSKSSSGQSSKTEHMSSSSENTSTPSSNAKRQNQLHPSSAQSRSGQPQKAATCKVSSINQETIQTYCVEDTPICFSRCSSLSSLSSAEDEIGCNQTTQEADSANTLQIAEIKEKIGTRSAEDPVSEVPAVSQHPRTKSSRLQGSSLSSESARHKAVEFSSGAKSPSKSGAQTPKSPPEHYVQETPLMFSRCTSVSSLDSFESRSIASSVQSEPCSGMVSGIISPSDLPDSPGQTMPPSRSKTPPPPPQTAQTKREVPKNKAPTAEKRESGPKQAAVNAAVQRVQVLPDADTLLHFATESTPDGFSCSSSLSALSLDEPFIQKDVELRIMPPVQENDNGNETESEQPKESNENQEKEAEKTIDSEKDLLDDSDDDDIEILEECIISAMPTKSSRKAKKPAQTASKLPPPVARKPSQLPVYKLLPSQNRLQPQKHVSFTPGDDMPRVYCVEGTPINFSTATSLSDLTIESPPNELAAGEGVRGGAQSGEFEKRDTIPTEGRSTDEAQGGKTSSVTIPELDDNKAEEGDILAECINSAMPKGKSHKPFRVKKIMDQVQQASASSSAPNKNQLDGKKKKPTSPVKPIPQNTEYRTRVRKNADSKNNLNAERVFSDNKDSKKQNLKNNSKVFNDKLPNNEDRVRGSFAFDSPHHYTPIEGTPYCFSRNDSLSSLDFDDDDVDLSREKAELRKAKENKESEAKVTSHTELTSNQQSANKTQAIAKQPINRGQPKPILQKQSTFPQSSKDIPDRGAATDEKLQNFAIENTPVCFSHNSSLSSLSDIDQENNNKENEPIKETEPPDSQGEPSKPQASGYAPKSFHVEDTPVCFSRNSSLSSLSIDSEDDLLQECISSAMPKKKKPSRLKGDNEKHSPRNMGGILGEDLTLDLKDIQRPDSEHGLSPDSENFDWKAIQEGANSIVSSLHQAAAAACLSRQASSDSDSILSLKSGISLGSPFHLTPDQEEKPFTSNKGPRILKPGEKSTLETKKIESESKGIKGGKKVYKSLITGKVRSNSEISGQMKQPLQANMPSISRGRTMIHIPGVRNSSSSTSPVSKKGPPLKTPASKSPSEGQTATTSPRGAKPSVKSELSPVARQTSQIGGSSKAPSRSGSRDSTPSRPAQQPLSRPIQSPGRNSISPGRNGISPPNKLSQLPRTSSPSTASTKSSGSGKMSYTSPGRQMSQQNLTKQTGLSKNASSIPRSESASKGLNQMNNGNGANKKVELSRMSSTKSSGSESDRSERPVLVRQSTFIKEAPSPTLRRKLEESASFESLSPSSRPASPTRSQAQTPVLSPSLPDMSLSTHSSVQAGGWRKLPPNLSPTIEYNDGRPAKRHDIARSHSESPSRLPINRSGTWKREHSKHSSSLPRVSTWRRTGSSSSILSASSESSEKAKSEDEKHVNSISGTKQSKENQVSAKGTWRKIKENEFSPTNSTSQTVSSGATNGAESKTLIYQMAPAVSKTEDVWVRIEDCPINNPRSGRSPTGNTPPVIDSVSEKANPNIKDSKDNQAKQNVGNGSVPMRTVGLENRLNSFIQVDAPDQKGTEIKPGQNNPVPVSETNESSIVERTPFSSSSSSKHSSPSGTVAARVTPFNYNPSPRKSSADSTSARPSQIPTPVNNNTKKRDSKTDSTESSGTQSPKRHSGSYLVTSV
Where a SMILES comes first, the peptide text is derived from it. The star is where a group is joined. Cbz = O=C(OCc1ccccc1)*
endpoint-name: IC50 (nM)

I = CC(C)C[C@H](NC(=O)[C@H](C)NC(=O)[C@H](CCC(=O)O)NC(=O)CNC(=O)[C@H](C)NC(=O)OCc1ccccc1)C(=O)N[C@@H](Cc1ccc(O)cc1)C(=O)N[C@@H](CCC(=O)O)C(N)=O (Cbz-AGEALYE-NH2)
II = C[C@H](NC(=O)OCc1ccccc1)C(=O)NCC(=O)N[C@@H](CCC(=O)O)C(=O)N[C@@H](CO)C(=O)N[C@@H](Cc1ccccc1)C(=O)N[C@@H](Cc1ccc(O)cc1)C(=O)N[C@@H](CCC(=O)O)C(N)=O (Cbz-AGESFYE-NH2)
Q) Decide: I or II , by lowest recorded IC50. Write down the label attached to your selection.
A) I
(I: 1090 nM, II: 4360 nM)

----------
Where a SMILES comes first, the peptide text is derived from it. [ ]: non-standard residue; d: D form. The star is where a group is joined. Ala(cPent) = N[C@@H](CC1CCCC1)C(=O)O; tBuAla = CC(C)(C)C[C@H](N)C(=O)O; Cbz = O=C(OCc1ccccc1)*
// Adenomatous polyposis coli protein (Homo sapiens, UniProt P25054) IC50 records
endpoint-name: IC50 (nM)

I = C[C@H](NC(=O)OCc1ccccc1)C(=O)NCC(=O)N[C@@H](CCC(=O)O)C(=O)N[C@@H](CO)C(=O)N[C@@H](Cc1c[nH]c2ccccc12)C(=O)N[C@@H](Cc1ccc(O)cc1)C(=O)N[C@@H](CCC(=O)O)C(N)=O (Cbz-AGESWYE-NH2)
II = CC[C@H](C)[C@H](NC(=O)[C@H](CO)NC(=O)[C@H](CCC(=O)O)NC(=O)CNC(=O)[C@H](C)NC(=O)OCc1ccccc1)C(=O)N[C@@H](Cc1ccc(O)cc1)C(=O)N[C@@H](CCC(=O)O)C(N)=O (Cbz-AGESIYE-NH2)
III = C[C@H](NC(=O)OCc1ccccc1)C(=O)NCC(=O)N[C@@H](CCC(=O)O)C(=O)N[C@@H](CO)C(=O)N[C@@H](CC(C)(C)C)C(=O)N[C@@H](Cc1ccc(O)cc1)C(=O)N[C@@H](CCC(=O)O)C(N)=O (Cbz-AGES[tBuAla]YE-NH2)
IV = C[C@H](NC(=O)OCc1ccccc1)C(=O)NCC(=O)N[C@@H](CCC(=O)O)C(=O)N[C@@H](C)C(=O)N[C@@H](CC1CCCC1)C(=O)N[C@@H](Cc1ccc(O)cc1)C(=O)N[C@@H](CCC(=O)O)C(N)=O (Cbz-AGEA[Ala(cPent)]YE-NH2)
Q) Sort the listed entries by IC50, smallest first. Please reply with the labels ordered as requested. Many thanks.
A) IV, III, II, I
(IV: 570 nM, III: 1780 nM, II: 3850 nM, I: 10500 nM)

----------
biological target: Adenomatous polyposis coli protein (Homo sapiens); assay: Binding affinity to APC protein (303 to 739 residues) (unknown origin) incubated for 60 mins followed by probe addition and measured after 60 mins by competitive fluorescence polarization assay
Where a SMILES comes first, the peptide text is derived from it. [ ]: non-standard residue; d: D form. The star is where a group is joined. 2Nal = N[C@@H](Cc1ccc2ccccc2c1)C(=O)O; Met(O2) = CS(=O)(=O)CC[C@H](N)C(=O)O; Cha = N[C@@H](CC1CCCCC1)C(=O)O; Cbz = O=C(OCc1ccccc1)*
endpoint-name: IC50 (µM)

I = C[C@H](NC(=O)OCc1ccccc1)C(=O)NCC(=O)N[C@@H](CCC(=O)O)C(=O)N[C@@H](CO)C(=O)N[C@@H](Cc1c[nH]cn1)C(=O)N[C@@H](Cc1ccc(O)cc1)C(=O)N[C@@H](CCC(=O)O)C(N)=O (Cbz-AGESHYE-NH2)
II = C[C@H](NC(=O)OCc1ccccc1)C(=O)NCC(=O)N[C@@H](CCC(=O)O)C(=O)N[C@@H](CO)C(=O)N[C@@H](Cc1ccc2ccccc2c1)C(=O)N[C@@H](Cc1ccc(O)cc1)C(=O)N[C@@H](CCC(=O)O)C(N)=O (Cbz-AGES[2Nal]YE-NH2)
III = C[C@H](NC(=O)OCc1ccccc1)C(=O)NCC(=O)N[C@@H](CCC(=O)O)C(=O)N[C@@H](CO)C(=O)N[C@@H](CC1CCCCC1)C(=O)N[C@@H](Cc1ccc(O)cc1)C(=O)N[C@@H](CCC(=O)O)C(N)=O (Cbz-AGES[Cha]YE-NH2)
IV = C[C@H](NC(=O)OCc1ccccc1)C(=O)NCC(=O)N[C@@H](CCC(=O)O)C(=O)N[C@@H](CO)C(=O)N[C@@H](CCS(C)(=O)=O)C(=O)N[C@@H](Cc1ccc(O)cc1)C(=O)N[C@@H](CCC(=O)O)C(N)=O (Cbz-AGES[Met(O2)]YE-NH2)
Q) Please list these in order of increasing IC50. Thank you! Answer format: the labels, ordered as requested.
A) III, II, IV, I

----------
// Adenomatous polyposis coli protein (Homo sapiens) pIC50 records
pIC50: −log10 of the molar value. Where a SMILES comes first, the peptide text is derived from it. [ ]: non-standard residue; d: D form. The star is where a group is joined. Gly(octyl) = CCCCCCCC[C@H](N)C(=O)O; Cbz = O=C(OCc1ccccc1)*
endpoint-name: pIC50

// solved cases for pIC50 follow
CC(C)C[C@H](NC(=O)[C@H](CC(=O)O)NC(=O)[C@H](CCC(=O)O)NC(=O)CNC(=O)[C@H](C)NC(=O)OCc1ccccc1)C(=O)N[C@@H](Cc1ccc(O)cc1)C(=O)N[C@@H](CCC(=O)O)C(N)=O (Cbz-AGEDLYE-NH2)	5.20
CC(C)C[C@H](NC(=O)[C@H](CS)NC(=O)[C@H](CCC(=O)O)NC(=O)CNC(=O)[C@H](C)NC(=O)OCc1ccccc1)C(=O)N[C@@H](Cc1ccc(O)cc1)C(=O)N[C@@H](CCC(=O)O)C(N)=O (Cbz-AGECLYE-NH2)	5.82

1 = CCCCCCCC[C@H](NC(=O)[C@H](CO)NC(=O)[C@H](CCC(=O)O)NC(=O)CNC(=O)[C@H](C)NC(=O)OCc1ccccc1)C(=O)N[C@@H](Cc1ccc(O)cc1)C(=O)N[C@@H](CCC(=O)O)C(N)=O (Cbz-AGES[Gly(octyl)]YE-NH2)
2 = CC(C)C[C@H](NC(=O)[C@H](CO)NC(=O)[C@H](CCC(=O)O)NC(=O)CNC(=O)[C@H](C)NC(=O)OCc1ccccc1)C(=O)N[C@@H](Cc1ccc(O)cc1)C(=O)N[C@@H](CCC(=O)O)C(N)=O (Cbz-AGESLYE-NH2)
Q) Between item 1 and item 2 , which reported pIC50 is smaller? Answer format: the label of the selected item.
A) 1
(1: 5.52, 2: 6.60)
